tested on: C. albicans MMX 2000 ATCC 10231; experiment: MIC assay (CLSI microdilution); format: cell-based; details: Candida albicans, ATCC10231, RPMI plus 0.002% Tween-80; read-out: MIC
Numbered stars: 1 amine (or outer) side, 2 acyl side, 3 side chain; on linkers, the order of the positions; unused ones are H or OH. Square brackets hold non-standard residues; d marks the D form. Peptide text beside a SMILES is read from it. X1 = CC(C)N1CCN(c2ccc(-c3cccc(C[C@@H](C(=O)[*:2])N(C)[*:1])c3)cc2)CC1; X12 = CN(C)c1cc(-c2cccc(C[C@@H](C(=O)[*:2])N(C)[*:1])c2)ccn1; X16 = CC(C)c1cc(-c2cccc(C[C@@H](C(=O)[*:2])N(C)[*:1])c2)ccn1; Hmp(2R,3S) = CC[C@H](C)[C@@H](O)C(=O)O; NMeVal(β-OH) = CN[C@H](C(=O)O)C(C)(C)O; NMeV = CN[C@H](C(=O)O)C(C)C
Reported MIC by item:
State just the number; it will be interpreted in µg/mL.

Consider the reported MIC for these compounds:
[[record]]
compound = "CC[C@H](C)[C@@H]1NC(=O)[C@@H]2CCCN2C(=O)[C@H](Cc2cccc(-c3ccc(N4CCN(C(C)C)CC4)cc3)c2)N(C)C(=O)[C@H](Cc2ccccc2)NC(=O)[C@H](C(C)C)N(C)C(=O)[C@@H]([C@@H](C)CC)OC(=O)[C@H](C(C)(C)O)N(C)C(=O)[C@H](CC(C)C)NC(=O)[C@H](C(C)C)N(C)C1=O [Compound 25] (cyclo(F[X1]PI[NMeV]L[NMeVal(β-OH)][Hmp(2R,3S)][NMeV]))"
measured = 0.015

[[record]]
compound = "CC[C@H](C)[C@@H]1NC(=O)[C@@H]2CCCN2C(=O)[C@H](Cc2cccc(-c3ccnc(C(C)C)c3)c2)N(C)C(=O)[C@H](Cc2ccccc2)NC(=O)[C@H](C(C)C)N(C)C(=O)[C@@H]([C@@H](C)CC)OC(=O)[C@H](C(C)(C)O)N(C)C(=O)[C@H](CC(C)C)NC(=O)[C@H](C(C)C)N(C)C1=O [Compound 16] (cyclo(F[X16]PI[NMeV]L[NMeVal(β-OH)][Hmp(2R,3S)][NMeV]))"
measured = 0.03


Please turn your attention to the following entry.
Q: Reported MIC for CC[C@H](C)[C@@H]1NC(=O)[C@@H]2CCCN2C(=O)[C@H](Cc2cccc(-c3ccnc(N(C)C)c3)c2)N(C)C(=O)[C@H](Cc2ccccc2)NC(=O)[C@H](C(C)C)N(C)C(=O)[C@@H]([C@@H](C)CC)OC(=O)[C@H](C(C)(C)O)N(C)C(=O)[C@H](CC(C)C)NC(=O)[C@H](C(C)C)N(C)C1=O [Compound 22] (cyclo(F[X12]PI[NMeV]L[NMeVal(β-OH)][Hmp(2R,3S)][NMeV])) : what is it?
A: 0.03

###

This section presents compounds with their documented MIC values.
system: A. flavus MMX 5948; assay: MIC/MEC assay (CLSI microdilution); type: cell-based; conditions: Aspergillus flavus, MMX5948, 48 h, RPMI plus 0.002% Tween-80, read-out: MIC
Numbered stars: 1 amine (or outer) side, 2 acyl side, 3 side chain; on linkers, the order of the positions; unused ones are H or OH. Square brackets hold non-standard residues; d marks the D form. Peptide text beside a SMILES is read from it. X13 = CN([C@@H](Cc1cccc(-c2ccc(N3CCN(C(=O)OC(C)(C)C)CC3)nc2)c1)C(=O)[*:2])[*:1]; X26 = CC1CCN(c2cnc(-c3cccc(C[C@@H](C(=O)[*:2])N(C)[*:1])c3)cn2)CC1; X9 = CN1CCN(c2cccc(-c3cccc(C[C@@H](C(=O)[*:2])N(C)[*:1])c3)n2)CC1; X25 = CN([C@@H](Cc1cccc(-c2ccc3cccnc3c2)c1)C(=O)[*:2])[*:1]; X27 = CN([C@@H](Cc1cccc(-c2cccc3ccccc23)c1)C(=O)[*:2])[*:1]; Hmp(2R,3S) = CC[C@H](C)[C@@H](O)C(=O)O; NMeVal(β-OH) = CN[C@H](C(=O)O)C(C)(C)O; NMeV = CN[C@H](C(=O)O)C(C)C

// below: answered compounds
[[record]]
compound = "CC[C@H](C)[C@@H]1NC(=O)[C@@H]2CCCN2C(=O)[C@H](Cc2cccc(-c3ccc4cccnc4c3)c2)N(C)C(=O)[C@H](Cc2ccccc2)NC(=O)[C@H](C(C)C)N(C)C(=O)[C@@H]([C@@H](C)CC)OC(=O)[C@H](C(C)(C)O)N(C)C(=O)[C@H](CC(C)C)NC(=O)[C@H](C(C)C)N(C)C1=O [Compound 10] (cyclo(F[X25]PI[NMeV]L[NMeVal(β-OH)][Hmp(2R,3S)][NMeV]))"
measured = "1 µg/mL"

[[record]]
compound = "CC[C@H](C)[C@@H]1NC(=O)[C@@H]2CCCN2C(=O)[C@H](Cc2cccc(-c3cnc(N4CCC(C)CC4)cn3)c2)N(C)C(=O)[C@H](Cc2ccccc2)NC(=O)[C@H](C(C)C)N(C)C(=O)[C@@H]([C@@H](C)CC)OC(=O)[C@H](C(C)(C)O)N(C)C(=O)[C@H](CC(C)C)NC(=O)[C@H](C(C)C)N(C)C1=O [Compound 11] (cyclo(F[X26]PI[NMeV]L[NMeVal(β-OH)][Hmp(2R,3S)][NMeV]))"
measured = "> 64 µg/mL"

[[record]]
compound = "CC[C@H](C)[C@@H]1NC(=O)[C@@H]2CCCN2C(=O)[C@H](Cc2cccc(-c3cccc(N4CCN(C)CC4)n3)c2)N(C)C(=O)[C@H](Cc2ccccc2)NC(=O)[C@H](C(C)C)N(C)C(=O)[C@@H]([C@@H](C)CC)OC(=O)[C@H](C(C)(C)O)N(C)C(=O)[C@H](CC(C)C)NC(=O)[C@H](C(C)C)N(C)C1=O [Compound 33] (cyclo(F[X9]PI[NMeV]L[NMeVal(β-OH)][Hmp(2R,3S)][NMeV]))"
measured = "0.5 µg/mL"

[[record]]
compound = "CC[C@H](C)[C@@H]1NC(=O)[C@@H]2CCCN2C(=O)[C@H](Cc2cccc(-c3cccc4ccccc34)c2)N(C)C(=O)[C@H](Cc2ccccc2)NC(=O)[C@H](C(C)C)N(C)C(=O)[C@@H]([C@@H](C)CC)OC(=O)[C@H](C(C)(C)O)N(C)C(=O)[C@H](CC(C)C)NC(=O)[C@H](C(C)C)N(C)C1=O [Compound 9] (cyclo(F[X27]PI[NMeV]L[NMeVal(β-OH)][Hmp(2R,3S)][NMeV]))"
measured = "> 64 µg/mL"


Kindly review the next compound as well.
Q: Requested field: MIC. Item: CC[C@H](C)[C@@H]1NC(=O)[C@@H]2CCCN2C(=O)[C@H](Cc2cccc(-c3ccc(N4CCN(C(=O)OC(C)(C)C)CC4)nc3)c2)N(C)C(=O)[C@H](Cc2ccccc2)NC(=O)[C@H](C(C)C)N(C)C(=O)[C@@H]([C@@H](C)CC)OC(=O)[C@H](C(C)(C)O)N(C)C(=O)[C@H](CC(C)C)NC(=O)[C@H](C(C)C)N(C)C1=O [Compound 26] (cyclo(F[X13]PI[NMeV]L[NMeVal(β-OH)][Hmp(2R,3S)][NMeV]))
A: > 64 µg/mL

###

Test system: A. fumigatus MMX 5280 ATCC MYA-3626
Assay: MIC/MEC assay (CLSI microdilution)
Type: cell-based, Aspergillus fumigatus
Conditions: Without Tween-80; 48 hr
Procedure: Aureobasidin and test compounds (i.e., AbA derivatives of the present invention) were received from Kalexsyn, Inc. (Kalamazoo, Mich.) as powder and were stored at 4° C. until the day of assay. […] amphotericin was obtained from Sigma Aldrich and stored under like conditions. […] Ethanol (95%) was used as a solvent and diluent for all AbA compounds. Amphotericin B was tested from 0.06-64 μg/mL. […]
Numbered stars: 1 amine (or outer) side, 2 acyl side, 3 side chain; on linkers, the order of the positions; unused ones are H or OH. Square brackets hold non-standard residues; d marks the D form. Peptide text beside a SMILES is read from it. X1 = CC(C)N1CCN(c2ccc(-c3cccc(C[C@@H](C(=O)[*:2])N(C)[*:1])c3)cc2)CC1; X3 = CN1CCN(c2ccc(-c3cccc(C[C@@H](C(=O)[*:2])N(C)[*:1])c3)cn2)CC1; X7 = CC(C)N1CCN(c2ccc(-c3cccc(C[C@H](N[*:1])C(=O)[*:2])c3)cc2)CC1; Hmp(2R,3S) = CC[C@H](C)[C@@H](O)C(=O)O; NMeVal(β-OH) = CN[C@H](C(=O)O)C(C)(C)O; NMeV = CN[C@H](C(=O)O)C(C)C
recorded_metric: MIC (µg/mL)
Reply with just the number (in µg/mL).

[[record]]
compound = "CC[C@H](C)[C@@H]1NC(=O)[C@@H]2CCCN2C(=O)[C@H](Cc2cccc(-c3ccc(N4CCN(C(C)C)CC4)cc3)c2)N(C)C(=O)[C@H](Cc2ccccc2)NC(=O)[C@H](C(C)C)N(C)C(=O)[C@@H]([C@@H](C)CC)OC(=O)[C@H](C(C)(C)O)N(C)C(=O)[C@H](CC(C)C)NC(=O)[C@H](C(C)C)N(C)C1=O [Compound 25] (cyclo(F[X1]PI[NMeV]L[NMeVal(β-OH)][Hmp(2R,3S)][NMeV]))"
recorded_metric = "MIC"
units_of_measure = "µg/mL"
measured = 1


Q: Look up MIC: CC[C@H](C)[C@@H]1NC(=O)[C@@H]2CCCN2C(=O)[C@H](Cc2cccc(-c3ccc(N4CCN(C(C)C)CC4)cc3)c2)N(C)C(=O)[C@H](Cc2cccc(-c3ccc(N4CCN(C(C)C)CC4)cc3)c2)NC(=O)[C@H](C(C)C)N(C)C(=O)[C@@H]([C@@H](C)CC)OC(=O)[C@H](C(C)(C)O)N(C)C(=O)[C@H](CC(C)C)NC(=O)[C@H](C(C)C)N(C)C1=O [Compound 31] (cyclo(I[NMeV]L[NMeVal(β-OH)][Hmp(2R,3S)][NMeV][X7][X1]P))
A: 2

Q: What value of MIC has been reported for the following compound? CC[C@H](C)[C@@H]1NC(=O)[C@@H]2CCCN2C(=O)[C@H](Cc2cccc(-c3ccc(N4CCN(C)CC4)nc3)c2)N(C)C(=O)[C@H](Cc2ccccc2)NC(=O)[C@H](C(C)C)N(C)C(=O)[C@@H]([C@@H](C)CC)OC(=O)[C@H](C(C)(C)O)N(C)C(=O)[C@H](CC(C)C)NC(=O)[C@H](C(C)C)N(C)C1=O [Compound 20] (cyclo(F[X3]PI[NMeV]L[NMeVal(β-OH)][Hmp(2R,3S)][NMeV]))
A: 2
